Assay: Pharmacokinetic study, IV administration in male CD-1 mice
Format: in vivo
Settings: male, CD-1, mouse, plasma, iv, 2 mg/kg, individual mice M1-M3, read-out: AUC0-inf

Molecule	Unit name	AUC0-inf
COc1ccc(-c2ccc(F)cc2)cc1Nc1ncnc2[nH]nc(-c3cc[nH]n3)c12 [8168C]	ng·h/mL	500

###

Molecular target: 2YF/3wt + NRG Ba/F3 cells (HER2YF/HER3wt) (Homo sapiens, UniProt P04626, Y1005F/Y1023F/Y1112F/Y1127F/Y1139F/Y1196F/Y1221F/Y1222F/Y1248F, cells depend on it)
Sequence (P04626 whole entry Y1005F/Y1023F/Y1112F/Y1127F/Y1139F/Y1196F/Y1221F/Y1222F/Y1248F): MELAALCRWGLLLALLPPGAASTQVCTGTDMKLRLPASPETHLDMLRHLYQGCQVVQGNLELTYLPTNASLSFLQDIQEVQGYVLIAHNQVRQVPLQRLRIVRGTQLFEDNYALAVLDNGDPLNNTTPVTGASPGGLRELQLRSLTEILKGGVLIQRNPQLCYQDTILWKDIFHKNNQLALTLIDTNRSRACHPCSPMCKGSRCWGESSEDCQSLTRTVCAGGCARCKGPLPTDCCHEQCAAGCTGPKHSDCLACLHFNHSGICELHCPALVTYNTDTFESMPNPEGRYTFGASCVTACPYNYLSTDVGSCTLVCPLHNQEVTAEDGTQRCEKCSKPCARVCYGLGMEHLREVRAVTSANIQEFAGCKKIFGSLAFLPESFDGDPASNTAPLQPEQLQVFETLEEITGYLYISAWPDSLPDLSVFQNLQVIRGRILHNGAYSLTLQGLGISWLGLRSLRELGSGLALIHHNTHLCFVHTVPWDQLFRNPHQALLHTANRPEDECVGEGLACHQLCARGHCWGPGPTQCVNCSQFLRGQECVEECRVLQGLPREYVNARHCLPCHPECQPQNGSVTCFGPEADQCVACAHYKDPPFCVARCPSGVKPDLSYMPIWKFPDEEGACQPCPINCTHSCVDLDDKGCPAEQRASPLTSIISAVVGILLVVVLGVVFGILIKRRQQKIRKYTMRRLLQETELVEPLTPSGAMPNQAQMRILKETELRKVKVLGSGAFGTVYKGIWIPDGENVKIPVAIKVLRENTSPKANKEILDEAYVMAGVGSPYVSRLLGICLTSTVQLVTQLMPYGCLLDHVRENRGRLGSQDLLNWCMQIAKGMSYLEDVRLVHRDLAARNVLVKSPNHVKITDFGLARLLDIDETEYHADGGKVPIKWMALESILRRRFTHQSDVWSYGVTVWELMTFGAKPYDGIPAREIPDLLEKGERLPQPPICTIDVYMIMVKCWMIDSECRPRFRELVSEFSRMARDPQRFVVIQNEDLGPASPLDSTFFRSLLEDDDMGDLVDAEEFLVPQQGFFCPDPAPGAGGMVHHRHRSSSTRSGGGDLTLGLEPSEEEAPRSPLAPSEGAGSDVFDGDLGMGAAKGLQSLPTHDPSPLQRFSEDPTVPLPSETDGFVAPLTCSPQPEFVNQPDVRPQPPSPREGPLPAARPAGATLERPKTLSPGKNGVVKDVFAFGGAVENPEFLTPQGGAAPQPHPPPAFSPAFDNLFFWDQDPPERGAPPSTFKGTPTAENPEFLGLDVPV
Assay: Ba/F3 proliferation assay, 2YF/3wt + NRG
Type: cell-based
Settings: Tables 7 and 8; read-out: Ba/F3 line IC50, HER2YF/HER3 + NRG
From the text: Ba/F3 cells are normally dependent on IL-3 signaling for their proliferation and survival, but can be made dependent on introduced oncogenic signals. We sequentially selected transduced Ba/F3 cells for populations stably expressing HER3 and then HER2. To ensure that all of the proliferative signal could be attributed to HER2/HER3 heterodimers, rather than HER2 homodimers, the 9 C-terminal tyrosines in HER2 were mutated to phenylalanine (HER2YF). […]
Binarize GI50 at 40 nM; below is Y, at or above is N.

Compound	Label value
COc1ccc(N2CCN(C)CC2)cc1Nc1ncnc2[nH]nc(-c3ccsc3)c12 [Cmpd 41B]	N
CC(=O)c1cccc(-c2n[nH]c3ncnc(Nc4ccc(-c5ccccc5)cc4)c23)c1 [Cmpd 188B]	N
COc1ccc(-c2ccoc2)cc1Nc1ncnc2[nH]nc(-c3cn[nH]c3)c12 [Cmpd 57B]	Y
COc1ccc(-c2ccccc2)cc1Nc1ncnc2[nH]nc(-c3ccn(C)n3)c12 [8-097]	Y
COc1ccc(-c2ccccc2)cc1Nc1ncnc2[nH]nc(-c3cccs3)c12 [Cmpd 45B]	N
CNC(=O)c1cc(-c2n[nH]c3ncnc(Nc4cc(-c5ccccc5)ccc4OC)c23)cs1 [Cmpd 45F]	N
COc1ccc(-c2ccccc2)cc1Nc1ncnc2[nH]nc(-c3ccc(C#N)cc3)c12 [Cmpd 191D]	N
CCOc1ccc(-c2ccccc2)cc1Nc1ncnc2[nH]cc(-c3cn[nH]c3)c12 [Cmpd 171]	N
COc1ccc(-c2ccoc2)cc1Nc1ncnc2[nH]cc(-c3cc[nH]n3)c12 [compound 178]	Y
COc1ccc(-c2ccc(C#N)s2)cc1Nc1ncnc2[nH]cc(-c3cn[nH]c3)c12 [Cmpd 170]	N
COc1ccc(-c2n[nH]c3ncnc(Nc4cc(-c5ccccc5)ccc4OC)c23)cc1 [Cmpd 189B]	N
COc1ccc(-c2ccccc2)cc1Nc1ncnc2[nH]nc(-c3ccccc3)c12 [Cmpd 184]	N
COc1ccc(-c2ccccc2)cc1Nc1ncnc2[nH]nc(-c3ccc(C(C)=O)cc3)c12 [Cmpd 191H]	N
CC(=O)c1cccc(-c2n[nH]c3ncnc(Nc4cccc(-c5ccccc5)c4)c23)c1 [Cmpd 186B]	N
COc1ccc(-c2ccoc2)cc1Nc1ncnc2[nH]nc(-c3cnn(C)c3)c12 [Cmpd 144B]	Y
COc1ccc(-c2ccccc2)cc1Nc1ncnc2[nH]nc(-c3cccc(C(N)=O)c3)c12 [Cmpd 45D]	N
COc1ccc(-c2ccnn2C)cc1Nc1ncnc2[nH]nc(-c3ccco3)c12 [Cmpd 66C]	N
COc1ccc(-c2cccnc2)cc1Nc1ncnc2[nH]nc(-c3ccsc3)c12 [Cmpd 39D]	N
COc1ccc(-c2ccccc2)cc1Nc1ncnc2[nH]nc(-c3ccccc3F)c12 [Cmpd 189A]	N
COc1ccc(-c2ccccc2)cc1Nc1ncnc2[nH]nc(-c3ccoc3)c12 [Cmpd 13]	N
COc1ccc(-c2cnn(C)c2)cc1Nc1ncnc2[nH]nc(-c3cn[nH]c3)c12 [Cmpd 154C]	N
CCOc1ccc(-c2ccoc2)cc1Nc1ncnc2[nH]nc(-c3cn[nH]c3)c12 [Cmpd 153]	Y
COc1cccc(-c2n[nH]c3ncnc(Nc4cc(-c5ccccc5)ccc4OC)c23)c1 [Cmpd 190A]	N
COc1ccc(N2CCOCC2)cc1Nc1ncnc2[nH]nc(-c3ccsc3)c12 [Cmpd 41A]	N
COc1ccccc1Nc1ncnc2[nH]nc(-c3cccc(C(C)=O)c3)c12 [Cmpd 187B]	N
COc1ccc(-c2ccoc2)cc1Nc1ncnc2[nH]cc(-c3ccc4nc[nH]c4c3)c12 [Cmpd 173B]	Y
CN(C)c1ccc(-c2ccsc2)cc1Nc1ncnc2[nH]nc(-c3ccn(C)n3)c12 [104B]	Y
COc1ccc(C(C)(C)C)cc1Nc1ncnc2[nH]nc(-c3cccc(C(C)=O)c3)c12 [Cmpd 190D]	N
COc1ccc(-c2ccco2)cc1Nc1ncnc2[nH]nc(-c3cn[nH]c3)c12 [Cmpd 53B]	Y
COc1ccc(-c2ccccc2)cc1Nc1ncnc2[nH]nc(-c3cccc4ccccc34)c12 [Cmpd 191B]	N
COc1ccc(-c2ccccc2)cc1Nc1ncnc2[nH]nc(-c3ccc4ccccc4c3)c12 [Cmpd 190C]	N
c1ccc(-c2ccc(Nc3ncnc4[nH]nc(-c5ccccc5)c34)cc2)cc1 [Cmpd 188A]	N
COc1ccc(-c2ccccc2)cc1Nc1ncnc2[nH]cc(-c3cc[nH]n3)c12 [8-089]	Y
COc1ccc(-c2ccoc2)cc1Nc1ncnc2[nH]nc(-c3ccccc3)c12 [Cmpd 144A]	N
